Data credit: paper PMC4306533

- target.of.assay: X4E1a4 (E101S/K102R/S195A/M82S) (Xenopus laevis, UniProt P48597, E101S/K102R/M82S/S195A)
- Construct: made in house; host or cells: E. coli Rosetta2(DE3)
- Sequence (P48597 whole entry M82S/E101S/K102R/S195A): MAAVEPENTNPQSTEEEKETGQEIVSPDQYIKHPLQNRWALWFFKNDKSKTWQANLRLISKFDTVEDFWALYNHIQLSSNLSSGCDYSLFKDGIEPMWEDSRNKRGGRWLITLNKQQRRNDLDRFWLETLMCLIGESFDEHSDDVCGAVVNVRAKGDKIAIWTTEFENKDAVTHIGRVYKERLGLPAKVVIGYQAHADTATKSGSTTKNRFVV
- experiment.notes: fluorescence titration, XeIF4E1a mutant
- Type: binding
- experimental.context: mutant (E101S/K102R/S195A/M82S) of XeIF4E1a
Listing of recorded Kas X4E1a4 by entry.

smiles.text: CCn1c[n+]([C@@H]2O[C@H](COP(=O)(O)OP(=O)(O)OP(=O)(O)O)[C@@H](O)[C@H]2O)c2nc(N)[nH]c(=O)c21
target.of.assay: X4E1a4 (E101S/K102R/S195A/M82S) (Xenopus laevis, UniProt P48597, E101S/K102R/M82S/S195A)
measurement.unit: µM⁻¹
Kas X4E1a4: 8.21

smiles.text: Cn1c[n+]([C@@H]2O[C@H](COP(=O)([O-])OP(=O)(O)OP(=O)(O)O)[C@@H](O)[C@H]2O)c2nc(N)[nH]c(=O)c21
target.of.assay: X4E1a4 (E101S/K102R/S195A/M82S) (Xenopus laevis, UniProt P48597, E101S/K102R/M82S/S195A)
measurement.unit: µM⁻¹
Kas X4E1a4: 26.7

smiles.text: Cn1c[n+]([C@@H]2O[C@H](COP(=O)(O)OP(=O)([O-])O)[C@@H](O)[C@H]2O)c2nc(N)[nH]c(=O)c21
target.of.assay: X4E1a4 (E101S/K102R/S195A/M82S) (Xenopus laevis, UniProt P48597, E101S/K102R/M82S/S195A)
measurement.unit: µM⁻¹
Kas X4E1a4: 7.68

====

- target.of.assay: X4E1a1’ (K102R) (Xenopus laevis, UniProt P48597, K102R)
- Construct: made in house; host or cells: E. coli Rosetta2(DE3)
- Sequence (P48597 whole entry K102R): as the sequence (P48597 whole entry M82S/E101S/K102R/S195A) above, with S82M, S101E, A195S counted along it
- experiment.notes: fluorescence titration, XeIF4E1a mutant
- Type: binding
- experimental.context: mutant (K102R) of XeIF4E1a
readout.label: Kas X4E1a1’ (µM⁻¹)

smiles.text: Cn1c[n+]([C@@H]2O[C@H](COP(=O)(O)OP(=O)([O-])OP(=O)(O)OC[C@H]3O[C@@H](n4cnc5c(=O)[nH]c(N)nc54)[C@H](O)[C@@H]3O)[C@@H](O)[C@H]2O)c2nc(N)[nH]c(=O)c21
measurement.unit: µM⁻¹
number: 3.341
--
smiles.text: CCn1c[n+]([C@@H]2O[C@H](COP(=O)(O)OP(=O)(O)OP(=O)(O)O)[C@@H](O)[C@H]2O)c2nc(N)[nH]c(=O)c21
measurement.unit: µM⁻¹
number: 7.38
--
smiles.text: Nc1nc2c(c(=O)[nH]1)n(Cc1ccccc1)c[n+]2[C@@H]1O[C@H](COP(=O)(O)OP(=O)(O)O)[C@@H](O)[C@H]1O
measurement.unit: µM⁻¹
number: 11.22

====

Listing of recorded Kas X4E1a6 by entry.
- target.of.assay: X4E1a6 (E101S/K102R/S195A/M82S/T206L/T207S) (Xenopus laevis, UniProt P48597, E101S/K102R/M82S/S195A/T206L/T207S)
- Construct: made in house; host or cells: E. coli Rosetta2(DE3)
- Sequence (P48597 whole entry M82S/E101S/K102R/S195A/T206L/T207S): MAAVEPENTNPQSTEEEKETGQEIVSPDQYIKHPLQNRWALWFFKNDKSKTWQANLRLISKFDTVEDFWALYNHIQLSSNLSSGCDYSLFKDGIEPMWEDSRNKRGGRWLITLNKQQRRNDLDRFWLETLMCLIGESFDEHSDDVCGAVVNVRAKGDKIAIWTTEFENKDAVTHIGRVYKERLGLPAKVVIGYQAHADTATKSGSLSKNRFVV
- experiment.notes: fluorescence titration, XeIF4E1a mutant
- Format: binding
- experimental.context: mutant (E101S/K102R/S195A/M82S/T206L/T207S) of XeIF4E1a
readout.label: Kas X4E1a6 (µM⁻¹)

molecule: Cn1c[n+]([C@@H]2O[C@H](COP(=O)(O)OP(=O)([O-])O)[C@@H](O)[C@H]2O)c2nc(N)[nH]c(=O)c21 [m^7GDP]
readout.label: Kas X4E1a6
number: 6.82
//
molecule: Cn1c[n+]([C@@H]2O[C@H](COP(=O)(O)OP(=O)(O)OP(=O)(O)OP(=O)(O)OP(=O)(O)O)[C@@H](O)[C@H]2O)c2nc(N)[nH]c(=O)c21 [m^7Gp5]
readout.label: Kas X4E1a6
number: 190
//
molecule: Cn1c[n+]([C@@H]2O[C@H](COP(=O)([O-])OP(=O)(O)OP(=O)(O)O)[C@@H](O)[C@H]2O)c2nc(N)[nH]c(=O)c21 [m^7GTP]
readout.label: Kas X4E1a6
number: 19.8
//
molecule: CCn1c[n+]([C@@H]2O[C@H](COP(=O)(O)OP(=O)(O)OP(=O)(O)O)[C@@H](O)[C@H]2O)c2nc(N)[nH]c(=O)c21 [et^7GTP]
readout.label: Kas X4E1a6
number: 4.41
//
molecule: CN(C)c1nc2c(c(=O)[nH]1)[n+](C)cn2[C@@H]1O[C@H](COP(=O)(O)OP(=O)(O)OP(=O)(O)O)[C@@H](O)[C@H]1O [m^2,2,7GTP]
readout.label: Kas X4E1a6
number: 0.185
//
molecule: Cn1c[n+]([C@@H]2O[C@H](COP(=O)(O)OP(=O)(O)OP(=O)(O)OC[C@H]3O[C@@H](n4cnc5c(N)ncnc54)[C@H](O)[C@@H]3O)[C@@H](O)[C@H]2O)c2nc(N)[nH]c(=O)c21 [m^7GpppA]
readout.label: Kas X4E1a6
number: 1.33
